All values here come from the NIST ThermoML archive (doi:10.1021/je200637v).

As shown below, each of these compounds has a reported activity coefficient value.
Experiment: activity coefficient (dimensionless); of the first substance listed, at infinite dilution; xn = mol fraction of the nth substance listed
Details: 332.65 K; Liquid; Chromatography; x1 = 0

{"Compound": "Cc1ccccc1C [1,2-dimethylbenzene] + CCCCCCCC[N+](CCCCCCCC)(CCCCCCCC)CCCCCCCC.O=S(=O)([N-]S(=O)(=O)C(F)(F)F)C(F)(F)F", "activity coefficient": 0.57}
{"Compound": "CCCC(C)=O [pentan-2-one] + CCCC[N+](C)(CCCC)CCCC.O=S(=O)([N-]S(=O)(=O)C(F)(F)F)C(F)(F)F", "activity coefficient": 0.58}
{"Compound": "CCc1ccccc1 [ethylbenzene] + CCCCCCCC[N+](C)(C)C.O=S(=O)([N-]S(=O)(=O)C(F)(F)F)C(F)(F)F", "activity coefficient": 1.4}
{"Compound": "CCCCCC [hexane] + CCCC[N+](C)(CCCC)CCCC.O=S(=O)([N-]S(=O)(=O)C(F)(F)F)C(F)(F)F", "activity coefficient": 6.75}
{"Compound": "CCC=O [propanal] + CCCCCCCC[N+](CCCCCCCC)(CCCCCCCC)CCCCCCCC.O=S(=O)([N-]S(=O)(=O)C(F)(F)F)C(F)(F)F", "activity coefficient": 0.35}
{"Compound": "CCC(=O)CC [pentan-3-one] + CCCCCCCC[N+](CCCCCCCC)(CCCCCCCC)CCCCCCCC.O=S(=O)([N-]S(=O)(=O)C(F)(F)F)C(F)(F)F", "activity coefficient": 0.33}
{"Compound": "CCCCCCC [heptane] + CCCCCCCC[N+](CCCCCCCC)(CCCCCCCC)CCCCCCCC.O=S(=O)([N-]S(=O)(=O)C(F)(F)F)C(F)(F)F", "activity coefficient": 1.48}
{"Compound": "C#CCCCC [1-hexyne] + CCCCCCCC[N+](CCCCCCCC)(CCCCCCCC)CCCCCCCC.O=S(=O)([N-]S(=O)(=O)C(F)(F)F)C(F)(F)F", "activity coefficient": 0.76}
{"Compound": "CC#N [acetonitrile] + CCCCCCCC[N+](CCCCCCCC)(CCCCCCCC)CCCCCCCC.O=S(=O)([N-]S(=O)(=O)C(F)(F)F)C(F)(F)F", "activity coefficient": 0.49}
{"Compound": "CCC(C)=O [butanone] + CCCCCCCC[N+](C)(C)C.O=S(=O)([N-]S(=O)(=O)C(F)(F)F)C(F)(F)F", "activity coefficient": 0.38}
{"Compound": "C=O [methanal] + CCCCCCCCCC[N+](C)(C)C.O=S(=O)([N-]S(=O)(=O)C(F)(F)F)C(F)(F)F", "activity coefficient": 0.1}
{"Compound": "C1COCCO1 [1,4-dioxane] + CCCC[N+](C)(CCCC)CCCC.O=S(=O)([N-]S(=O)(=O)C(F)(F)F)C(F)(F)F", "activity coefficient": 0.67}
{"Compound": "Cc1cccc(C)c1 [1,3-dimethylbenzene] + CCCC[N+](C)(CCCC)CCCC.O=S(=O)([N-]S(=O)(=O)C(F)(F)F)C(F)(F)F", "activity coefficient": 1.56}

----------
Test: activity coefficient (dimensionless); of the first substance listed, at infinite dilution; xn = mol fraction of the nth substance listed
Conditions: 322.85 K; Liquid; Chromatography; x1 = 0
# class assignment by measured activity coefficient: low bracket = under 0.7, middle bracket = from 0.7 up to 2, high bracket = 2 and over

{"Compound": "CCCCCC [hexane] + CCCCCCCCCC[N+](C)(C)C.O=S(=O)([N-]S(=O)(=O)C(F)(F)F)C(F)(F)F", "Assigned class": "high bracket"}
{"Compound": "ClC(Cl)(Cl)Cl [tetrachloromethane] + CCCCCCCC[N+](CCCCCCCC)(CCCCCCCC)CCCCCCCC.O=S(=O)([N-]S(=O)(=O)C(F)(F)F)C(F)(F)F", "Assigned class": "low bracket"}
{"Compound": "c1ccsc1 [thiophene] + CCCC[N+](C)(CCCC)CCCC.O=S(=O)([N-]S(=O)(=O)C(F)(F)F)C(F)(F)F", "Assigned class": "middle bracket"}
{"Compound": "CCCC(C)=O [pentan-2-one] + CCCC[N+](C)(CCCC)CCCC.O=S(=O)([N-]S(=O)(=O)C(F)(F)F)C(F)(F)F", "Assigned class": "low bracket"}
{"Compound": "CCCCO [butan-1-ol] + CCCC[N+](C)(CCCC)CCCC.O=S(=O)([N-]S(=O)(=O)C(F)(F)F)C(F)(F)F", "Assigned class": "high bracket"}
{"Compound": "CC(C)OC(C)C [diisopropyl ether] + CCCCCCCCCC[N+](C)(C)C.O=S(=O)([N-]S(=O)(=O)C(F)(F)F)C(F)(F)F", "Assigned class": "high bracket"}
{"Compound": "CCc1ccccc1 [ethylbenzene] + CCCCCCCCCC[N+](C)(C)C.O=S(=O)([N-]S(=O)(=O)C(F)(F)F)C(F)(F)F", "Assigned class": "middle bracket"}
{"Compound": "C=O [methanal] + CCCCCCCC[N+](CCCCCCCC)(CCCCCCCC)CCCCCCCC.O=S(=O)([N-]S(=O)(=O)C(F)(F)F)C(F)(F)F", "Assigned class": "low bracket"}
{"Compound": "ClCCl [dichloromethane] + CCCCCCCC[N+](CCCCCCCC)(CCCCCCCC)CCCCCCCC.O=S(=O)([N-]S(=O)(=O)C(F)(F)F)C(F)(F)F", "Assigned class": "low bracket"}
{"Compound": "C=CCCCC [hex-1-ene] + CCCC[N+](C)(CCCC)CCCC.O=S(=O)([N-]S(=O)(=O)C(F)(F)F)C(F)(F)F", "Assigned class": "high bracket"}
{"Compound": "CCCCCCCCCCCC [dodecane] + CCCC[N+](C)(CCCC)CCCC.O=S(=O)([N-]S(=O)(=O)C(F)(F)F)C(F)(F)F", "Assigned class": "high bracket"}
{"Compound": "CCC(C)CC [3-methylpentane] + CCCCCCCCCC[N+](C)(C)C.O=S(=O)([N-]S(=O)(=O)C(F)(F)F)C(F)(F)F", "Assigned class": "high bracket"}
